FYI, the data here is from patent US20040048790A1.

target: HLA-B*5101 (human); assay: 125I-probe peptide inhibition, purified HLA; conditions: remark: other sources report otherwise
attribute.measured: IC50 (nM)
Only the number, expressed in nM, is required.

Lookup: Please give the measured IC50 for this binder: APAPAPSI [p53.84.18]
Found: 500
